tested on: MS2 coat protein; assay: apparent KD of MS2 coat protein; designed switch direction (-1 OFF switch, 1 ON switch): 1; higher = weaker reporter binding; conditions: Eterna round: R98; input ligand: FMN 200 uM
Catalogue of sequences with associated apparent KD of MS2 coat protein
The reply should be a number in nM, with the unit left off.

{"inputSequence": "UUUACAUGAGGAUCACCCAUGUAUGUCACCCAUGUGUGUAAUCAGGAUAUGAAAUAAAUAAUAAAUUAGAAGGGAUAACAUGAG [Attempt 1]", "valueUnit": "nM", "apparent KD of MS2 coat protein": 72.9}
{"inputSequence": "GUAGCAUACCGAGGAUAUUCAUAUAAUAAAUAAACAUGAGGAUCACCCAUGUGGCGAAAGCCUAGGGAGAAGGCGGAAUGCUAA [salish99_SSNG2_r2_113]", "valueUnit": "nM", "apparent KD of MS2 coat protein": 23.6}
{"inputSequence": "GCAGAAGGUGCGGAGGAUCACCCUGUAAGGAUAUGCAUUAGCAAGGAUAUACAGAGGAUCACCCUGUAGAAGGUGCACUACAAA [pwkr2 ssNG3 DX.5]", "valueUnit": "nM", "apparent KD of MS2 coat protein": 525}
{"inputSequence": "GCCAUCGCAUGAGGAUAUGGCACCGUUUCGGUGCCAGAAGGCAUGUCUCUAGACAUGAGGAUCACCCAUGUAGUUAAGAUGGCA [Pyrimidine booster 2]", "valueUnit": "nM", "apparent KD of MS2 coat protein": 50.4}
{"inputSequence": "UGGACCAAUACAGGAUAUGGUGACGCACAUGAGGAUCACCCAUGUCCGCAGCGUGCUCAGCACGCCCAGAAGGGUAUUGAUUCA [Tereriesti]", "valueUnit": "nM", "apparent KD of MS2 coat protein": 74.5}

q: Given the entry ACAUGAGGAUCACCCAUGUAAUAACAUCGGAUUGUCGAAGGUGAGGAUAUCGUACUGGAAUAUUUCGAGAAGGCACAUUCUCCU [JR_SSNG3_Sub075] , report its measured apparent KD of MS2 coat protein.
a: 25.9

q: Given the sequence CCCUUCAGAAGAGGGACAUGAGGAUCACCCAUGUAGGCUGCACAGGAUAUCGAUCGGAGGCGGUACGAGAAGGGUGACGUCAUU [Soedgege] , what is its reported apparent KD of MS2 coat protein?
a: 168

q: What value of measured apparent KD of MS2 coat protein is listed for GCACUCAAGUUAGGAUAUGGAUCGGAAACCGAUCCAGAAGGAACACAAUAACAUGAGCAUCAGCCGUGUUCCAGAAACGAGUGC [SameSame 15 - Jieux - Same State NG 1] ?
a: 126

====

system: MS2 coat protein; experiment: apparent KD of MS2 coat protein; higher = weaker reporter binding; conditions: Eterna round: R107; input ligand: none
sequences and their reported apparent KD of MS2 coat protein

Guide cases for apparent KD of MS2 coat protein, answers given:
{"inputSequence": "AGCGCAGGUCCUGAUACCAGAGACAUGAGGAUCACCCAUGUCCGGUGGUCCUGCCACAGGCUCCCUUGGCAGCAGGGCUUGUGCU [Exclusion Theophylline B GF9]", "valueReported": "28.7 nM"}
{"inputSequence": "AGCCUCAUACAUGAGGAACACCCAUGUGAUACCAGUCAGGAAACUGACCCUUGGCAGCGCAUGAGGAUCACCCAUGCGCGAGGCA [Omei Theo A Exc A v3]", "valueReported": "63 nM"}

q: I would be grateful if you could share the reported apparent KD of MS2 coat protein for UGGGAAGGAGGAAGGAGCGCCAUAAGGGUGACAGUCUGGGUACAUGAGGAUCACCCAUGUAGGCAGGUAGGUCGCCUAGCUCUCA [XArg-B16] .
a: 9.14 nM

====

system: MS2 coat protein; test: apparent KD of MS2 coat protein; designed switch direction (-1 OFF switch, 1 ON switch): -1; higher = weaker reporter binding; conditions: input ligand: FMN 200 uM
assayReadout: apparent KD of MS2 coat protein (nM)
Just the number please, in nM, no unit attached.

Use the examples below as a reference point.
{"inputSequence": "UAUAAACAUGAGGAUCACCCAUGUGAGGAUAUCUAAACCAGAGCGGAUCUCUGGACCAAGAGAAGGUGCAUGGU [ElNandoxlusion 10 - Jieux - Exclusion 1] (Eterna round: R97, puzzle: Exclusion 1)", "valueUnit": "nM", "apparent KD of MS2 coat protein": 66.9}
{"inputSequence": "AAAUAACCUCUAGGAUAUGUGUACGUAUAGUGCGCAGAAGGAGACAUGAGGAUCACCCAUGUACACACACAACAAACGACCACC (Eterna round: R96, puzzle: Exclusion NG 1)", "valueUnit": "nM", "apparent KD of MS2 coat protein": 26.1}

Consider the additional sequence presented here.
q: Report apparent KD of MS2 coat protein for GUUUUGUGAGGAUAUCCCUAUCAUCUAGCUGACUAGAUGGUGGAGAAGGCACAUGAGGAUCACCCAUGUGGGAG [Eternabot (L1) Solution 3] (Eterna round: R97, puzzle: Exclusion 4) tested on MS2 coat protein.
a: 111

====

test system: K4 kissing-loop RNA reporter; assay: apparent KD of K4 kissing-loop reporter; higher = weaker reporter binding; conditions: Eterna round: R107; input ligand: FMN 200 uM
Reported apparent KD of K4 kissing-loop reporter values are given for each entry in this list.
Answer with a number only, understood to be in µM.

{"inputSequence": "GUGCGGCUAGUGAUGUUGGUUGUGUGGGAAGGAGCGCAGAUACAUGCAGGUAGGUCGCCCACACCUCUGAAAGGAGGCUAAUUCA [KL-SSArg-A15]", "apparent KD of K4 kissing-loop reporter, µM": 0.418}

q: State the recorded apparent KD of K4 kissing-loop reporter for this entry: AAGUGAUGUUGUAGUGAUGUUGUGAUGUUGCAGGAUAUAUAGUGAUGUAGAAGGGUAUGUACUUAUUUUUUUUUUGAGUUUUGUU [xgghzrmullin]
a: 0.082

q: Which apparent KD of K4 kissing-loop reporter value belongs to CAGAAGCAUUCGGCCGCCACUCCAGUGAUGUUGGAGCGGGAGGGCCUUAAACCUCGAGGCUGCUGGAGGACCGGGAAUGUUGAGG [Beerso] ?
a: 0.166

q: Any idea what apparent KD of K4 kissing-loop reporter was measured for AGUAAUCUCACGGCCGCCACUGUUUAUUGUUUUUAUAGUUAUAAAUCUUGCCAGUGAUGUUGGUACAGGACCGGGUGAGUUAAUA [#25 K4 Tryptophan B Same State] ?
a: 0.357

q: If you can, please state the reported apparent KD of K4 kissing-loop reporter value of AUGCGCGCGGCGGCCGCCACUCGCAUGAGAGUGAUGUUCUCGCCGGGCCCGGAAGGGCCCGGUGUGAGGACCGGGCCGGGCUGCG [#2 Same State - Tryptophan B Attempt #17 (HarryS)] .
a: 0.121

====

tested on: K4 kissing-loop RNA reporter; assay: apparent KD of K4 kissing-loop reporter; higher = weaker reporter binding; details: Eterna round: R107; input ligand: FMN 200 uM;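 further: bound reporter read as fluorescence of individual clusters on recovered sequencing chips by microscopy, with normalized cluster intensities fitted with a binding model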
Returns one of MET or NOT MET; MET when apparent KD of K4 kissing-loop reporter is >= 0.4 µM.

{"inputSequence": "AAUUUAGUGACGGCCGCCACUAUGGUGAUUUAUUUGUUUGAGUGAUGUUUUGAUGUUUGAUUUUGUAGGACCGGGUUAGGUGAUG [aaacmullin]", "labelClass": "NOT MET"}
{"inputSequence": "UUUCAAAUUUAAGGAUAUUAGAUACCAGGAAAGGAGUGAUGUUCCGUGCUACGAUAGUGCUAGGGCUAAGAAGGUAAGUCUCGAG [theeternabot_sameState_KL_FMN_B_37]", "labelClass": "NOT MET"}
{"inputSequence": "UAAUCCUAGUGAUAAUAAUCAAGUGGUGGACGAGGACCGGUACGGCCGCCACUCGAAAAUGCAGUGAUGUUGUAAUCCGGAUAAU [Exclusion - Tryptophan A (Freestyle 4)]", "labelClass": "MET"}
{"inputSequence": "AAUAAAAUCACGGCCGCCACUGAUUUUUUUAUUAGGAGUGAUGUUCCUUUGUCUAUAUACCUUAACAGGACCGGGUGAAUAUUUA [JR_SSTryptoB_Sub022]", "labelClass": "NOT MET"}

q: hey, is apparent KD of K4 kissing-loop reporter for this one >= 0.4 µM? GGCAGAGUGAUGUUCGCCCUUUACCUUGAUACCAGUUCAUCUCAAAACCCUUGGCAGCAAGUGUGUAAGAGCGGUAUUGGUCAAU [theeternabot_exclusion_KL_Theo_A_1]
a: NOT MET

q: Check this sequence for apparent KD of K4 kissing-loop reporter at or above 0.4 µM: ACCUACGAUCACAAAAGUGAUUGUAGGAUCUAGGAUAUGCUGAAGAGCAGAAGGAGAGUGAUGUUCUCAACUCACGAAAGUGAGA [whbob_Ex_FMNA__2th188]
a: NOT MET

Reference for the values: the supplement of paper PMC9170038
